Test system: barnyardgrass (Echinochloa crus-galli)
Assay: Test C flooded paddy test plant response
Format: in vivo
Conditions: Flood, 250 g ai/ha; scale of 0 to 100 where 0 is no effect and 100 is complete control; 13 to 15 days

MOLECULE: Clc1cnc(Oc2ccccc2-c2cc(C(Cl)Cl)on2)nc1 [Compound 97]
Barnyardgrass plant response rating: 0
//
MOLECULE: Fc1ccc(Oc2ncc(Cl)cn2)c(-c2cc(C(F)F)on2)c1Br [Compound 114]
Barnyardgrass plant response rating: 0
//
MOLECULE: Cn1ccc(-c2ccccc2Oc2ncc(Cl)cn2)n1 [Compound 10]
Barnyardgrass plant response rating: 0
//
MOLECULE: Cn1nc(-c2c(C#N)cccc2Oc2ncc(Cl)cn2)cc1C(F)(F)F [Compound 146]
Barnyardgrass plant response rating: 0
//
MOLECULE: Clc1cnc(Oc2ccccc2-c2cc(C3CC3)on2)nc1 [Compound 183]
Barnyardgrass plant response rating: 0
//
MOLECULE: COc1cccc(Oc2ncc(Cl)cn2)c1-c1cc(C(F)(F)F)on1 [Compound 105]
Barnyardgrass plant response rating: 45
//
MOLECULE: Clc1cnc(Oc2ccccc2-c2cccnc2)nc1 [Compound 4]
Barnyardgrass plant response rating: 0
//
MOLECULE: N#Cc1cccc(Oc2ncc(Cl)cn2)c1-c1cc(C(F)(F)F)on1 [Compound 157]
Barnyardgrass plant response rating: 0
//
MOLECULE: FC(F)(F)c1cc(-c2c(Cl)cccc2Oc2ncc(Cl)cn2)on1 [Compound 126]
Barnyardgrass plant response rating: 95

----------
Tested on: kochia (Kochia scoparia)
Assay: Test B pre-/postemergence plant response
Format: in vivo
Conditions: Preemergence, 125 g ai/ha; 0 to 100 scale (0 no effect, 100 complete control)
Binarize Kochia plant response rating at 30; below is Condition met, at or above is Condition not met.

MOLECULE: FC(F)Oc1cccc(Oc2ncc(Cl)cn2)c1-c1cc(C(F)F)no1 [Compound 132]
GROUP: Condition met

MOLECULE: N#Cc1cc(-c2c(F)cccc2Oc2ncc(Cl)cn2)no1 [Compound 222]
GROUP: Condition met

MOLECULE: FC(F)(Cl)c1cc(-c2ccccc2Oc2ncc(Cl)cn2)no1 [Compound 143]
GROUP: Condition not met

MOLECULE: Clc1cnc(Oc2ccccc2-c2ccns2)nc1 [Compound 233]
GROUP: Condition met

MOLECULE: Fc1cccc(Oc2ncc(Cl)cn2)c1-c1cc(C(F)F)no1 [Compound 144]
GROUP: Condition not met

MOLECULE: FC(F)(F)c1csc(-c2ccccc2Oc2ncc(I)cn2)n1 [Compound 138]
GROUP: Condition met

MOLECULE: FC(F)c1cc(-c2ccccc2Oc2ncc(Cl)cn2)co1 [Compound 141]
GROUP: Condition met

MOLECULE: Cc1cc(-c2c(F)cccc2Oc2ncc(Br)cn2)on1 [Compound 230]
GROUP: Condition not met

MOLECULE: CC(F)(F)c1cc(-c2ccccc2Oc2ncc(Br)cn2)no1 [Compound 149]
GROUP: Condition not met

MOLECULE: FCc1cc(-c2ccccc2Oc2ncc(Cl)cn2)on1 [Compound 224]
GROUP: Condition not met

MOLECULE: Fc1cnc(Oc2ccccc2-c2cnccn2)nc1 [Compound 164]
GROUP: Condition met

MOLECULE: Clc1cnc(Oc2ccccc2-c2cc(C3CC3)on2)nc1 [Compound 183]
GROUP: Condition not met

MOLECULE: Cc1cc(-c2ccccc2Oc2ncc(Cl)cn2)no1 [Compound 153]
GROUP: Condition met

MOLECULE: CCOC(=O)c1cc(-c2ccccc2Oc2ncc(Cl)cn2)on1 [Compound 225]
GROUP: Condition met

MOLECULE: Cc1ccnc(-c2ccccc2Oc2ncc(Cl)cn2)c1 [Compound 187]
GROUP: Condition met

MOLECULE: Clc1cnc(Oc2ccccc2-c2cnccn2)nc1 [Compound 163]
GROUP: Condition met

MOLECULE: Cc1csc(-c2ccccc2Oc2ncc(Cl)cn2)c1 [Compound 216]
GROUP: Condition met

MOLECULE: Fc1cnc(Oc2cccc(F)c2-c2cnccn2)nc1 [Compound 166]
GROUP: Condition met

MOLECULE: Cn1nc(-c2ccccc2Oc2ncc(Cl)cn2)cc1C(F)(F)F [Compound 237]
GROUP: Condition met

MOLECULE: Clc1cnc(Oc2ccccc2-c2ccno2)nc1 [Compound 154]
GROUP: Condition met

MOLECULE: CC(=O)c1cc(-c2ccccc2Oc2ncc(Cl)cn2)on1 [Compound 218]
GROUP: Condition met

MOLECULE: CC(C)(F)c1cc(-c2ccccc2Oc2ncc(Cl)cn2)no1 [Compound 236]
GROUP: Condition not met

MOLECULE: Fc1cnc(Oc2ccccc2-c2cc(C(F)F)no2)nc1 [Compound 210]
GROUP: Condition not met

MOLECULE: CC(F)(F)c1cc(-c2ccccc2Oc2ncc(Cl)cn2)on1 [Compound 178]
GROUP: Condition met

MOLECULE: Fc1ccc(-c2cc(C(F)(F)F)no2)c(Oc2ncc(Br)cn2)c1 [Compound 125]
GROUP: Condition not met

MOLECULE: Fc1ccc(-c2cc(C(F)(F)F)no2)c(Oc2ncc(Cl)cn2)c1 [Compound 124]
GROUP: Condition not met

MOLECULE: Brc1cnc(Oc2ccccc2-c2ccns2)nc1 [Compound 234]
GROUP: Condition met

MOLECULE: FC(F)c1ccc(-c2ccccc2Oc2ncc(Cl)cn2)o1 [Compound 239]
GROUP: Condition met

MOLECULE: Fc1ccnc(-c2ccccc2Oc2ncc(Cl)cn2)c1 [Compound 175]
GROUP: Condition met

MOLECULE: Cc1c(-c2ccccc2Oc2ncc(Cl)cn2)noc1C(F)(F)F [Compound 167]
GROUP: Condition met

----------
Test system: windgrass (Apera spica-venti)
Assay: Test E pre-/postemergence plant response
Assay type: in vivo
Settings: pre-emergence, 125 g ai/ha, Preemergence, scale 0 to 100, read-out: Plant response rating, Windgrass
Here the recorded pest or weed control at 125 g/ha is given for each entry.

SMILES: FC(F)(F)c1cc(-c2ccccc2Oc2ncc(Cl)cn2)no1
UNIT_STRING: %
pest or weed control at 125 g/ha: 100
--
SMILES: FC(F)c1cc(-c2ccccc2Oc2ncc(Cl)cn2)no1
UNIT_STRING: %
pest or weed control at 125 g/ha: 100
--
SMILES: Fc1cccc(Oc2ncc(Br)cn2)c1-c1cc(C(F)F)no1
UNIT_STRING: %
pest or weed control at 125 g/ha: 98
--
SMILES: FC(F)c1cc(-c2ccccc2Oc2ncc(Br)cn2)no1
UNIT_STRING: %
pest or weed control at 125 g/ha: 50

----------
Tested on: pigweed (Amaranthus retroflexus)
Assay: Test B pre-/postemergence plant response
Format: in vivo
Conditions: 31 g ai/ha, Preemergence; 0 to 100 scale where 0 is no effect and 100 is complete control
VALUE_TYPE: Plant response rating, Pigweed

COMPOUND: Clc1cnc(Oc2ccccc2-c2ccsc2)nc1
TARGET_OR_TEST_SYSTEM: pigweed (Amaranthus retroflexus)
VALUE_TYPE: Plant response rating, Pigweed
RECORDED_MEASUREMENT: 0

COMPOUND: FC(F)(F)C(F)(F)c1cc(-c2ccccc2Oc2ncc(Cl)cn2)no1
TARGET_OR_TEST_SYSTEM: pigweed (Amaranthus retroflexus)
VALUE_TYPE: Plant response rating, Pigweed
RECORDED_MEASUREMENT: 0

COMPOUND: FC(Cl)c1cc(-c2ccccc2Oc2ncc(Cl)cn2)no1 (stereo not shown)
TARGET_OR_TEST_SYSTEM: pigweed (Amaranthus retroflexus)
VALUE_TYPE: Plant response rating, Pigweed
RECORDED_MEASUREMENT: 70

COMPOUND: N#Cc1cc(-c2c(F)cccc2Oc2ncc(Cl)cn2)no1
TARGET_OR_TEST_SYSTEM: pigweed (Amaranthus retroflexus)
VALUE_TYPE: Plant response rating, Pigweed
RECORDED_MEASUREMENT: 20

COMPOUND: Fc1cccc(Oc2ncc(Cl)cn2)c1-c1cnccn1
TARGET_OR_TEST_SYSTEM: pigweed (Amaranthus retroflexus)
VALUE_TYPE: Plant response rating, Pigweed
RECORDED_MEASUREMENT: 30

COMPOUND: Fc1ccc(Oc2ncc(Cl)cn2)c(-c2cc(C(F)(Cl)Cl)on2)c1
TARGET_OR_TEST_SYSTEM: pigweed (Amaranthus retroflexus)
VALUE_TYPE: Plant response rating, Pigweed
RECORDED_MEASUREMENT: 100

COMPOUND: Brc1cnc(Oc2ccccc2-c2ccsc2)nc1
TARGET_OR_TEST_SYSTEM: pigweed (Amaranthus retroflexus)
VALUE_TYPE: Plant response rating, Pigweed
RECORDED_MEASUREMENT: 20

COMPOUND: Clc1cnc(Oc2ccccc2-c2ccno2)nc1
TARGET_OR_TEST_SYSTEM: pigweed (Amaranthus retroflexus)
VALUE_TYPE: Plant response rating, Pigweed
RECORDED_MEASUREMENT: 0

COMPOUND: FC(F)(F)COCc1cc(-c2ccccc2Oc2ncc(Cl)cn2)on1
TARGET_OR_TEST_SYSTEM: pigweed (Amaranthus retroflexus)
VALUE_TYPE: Plant response rating, Pigweed
RECORDED_MEASUREMENT: 0

COMPOUND: Clc1cnc(Oc2ccccc2-c2cocn2)nc1
TARGET_OR_TEST_SYSTEM: pigweed (Amaranthus retroflexus)
VALUE_TYPE: Plant response rating, Pigweed
RECORDED_MEASUREMENT: 0
